Biological target: C5a anaphylatoxin chemotactic receptor 1 (Homo sapiens)
Sequence (P21730 whole entry): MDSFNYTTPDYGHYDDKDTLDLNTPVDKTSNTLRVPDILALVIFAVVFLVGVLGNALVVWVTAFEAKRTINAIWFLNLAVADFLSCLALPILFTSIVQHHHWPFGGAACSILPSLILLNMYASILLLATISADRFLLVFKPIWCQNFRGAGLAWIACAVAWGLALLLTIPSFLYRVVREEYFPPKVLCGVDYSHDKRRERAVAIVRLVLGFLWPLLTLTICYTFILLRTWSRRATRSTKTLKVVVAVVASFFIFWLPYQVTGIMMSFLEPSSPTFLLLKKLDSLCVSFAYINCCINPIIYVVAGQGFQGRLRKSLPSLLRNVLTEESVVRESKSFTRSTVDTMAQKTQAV
Test: Inhibition of binding of [125I]C5a to human polymorphonuclear leukocyte C5a receptor
Measured quantity: log10(IC50) (log10 of the value in µM)

{"columns": ["Molecule", "log10(IC50)"],
 "data": [
  ["NCCCC[C@H](NC(=O)[C@@H](N)Cc1ccccc1)C(=O)N1CCCC1C(=O)N[C@H](CC1CCCCC1)C(=O)N[C@@H](Cc1c[nH]c2ccccc12)C(=O)N[C@H](CCCN=C(N)N)C(=O)O (single isomer, unassigned)", 0.30],
  ["CC(C)[C@H](NC(=O)[C@H](CO)NC(=O)[C@H](Cc1c[nH]cn1)NC(=O)[C@H](CCCCN)NC(=O)[C@H](Cc1ccc(O)cc1)NC(=O)[C@@H](N)CCCCN)C(=O)N[C@H](C(=O)N[C@@H](CCCCN)C(=O)N[C@@H](CCCCN)C(=O)NCCCCC(=O)N[C@@H](Cc1ccccc1)C(=O)N[C@@H](CCCCN)C(=O)N1CCC[C@H]1C(=O)N[C@H](CC1CCCCC1)C(=O)N[C@@H](Cc1c[nH]c2ccccc12)C(=O)N[C@H](CCCN=C(N)N)C(=O)O)C(C)C", 0.08],
  ["CC(=O)N[C@@H](Cc1ccccc1)C(=O)N[C@@H](CCCCN)C(=O)N1CCCC1C(=O)N[C@H](CC1CCCCC1)C(=O)N[C@@H](CC1c2ccccc2-c2ccccc21)C(=O)N[C@H](CCCN=C(N)N)C(=O)O (single isomer, unassigned; 16b)", 2.06],
  ["C[C@H](NC(=O)[C@@H](N)Cc1ccccc1)C(=O)N1CCCC1C(=O)N[C@H](CC1CCCCC1)C(=O)N[C@@H](Cc1c[nH]c2ccccc12)C(=O)N[C@H](CCCN=C(N)N)C(=O)O (single isomer, unassigned)", 0.95],
  ["CC(=O)N[C@@H](Cc1ccccc1)C(=O)N[C@@H](CCCN)C(=O)N1CCCC1C(=O)N[C@H](CC1CCCCC1)C(=O)N[C@@H](Cc1c[nH]c2ccccc12)C(=O)N[C@H](CCCN=C(N)N)C(=O)O (single isomer, unassigned)", -0.10]
]}

Origin of measurements: ChEMBL document CHEMBL1132227
